Origin of values: PubChem BioAssay AID1159580

EXPERIMENTAL DETAILS: chemical genetic growth profiling, strain panel (AID 1159580);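 also: tested at 20 µM; growth read once vehicle control cultures reached saturation at 30 °C; lower values mean less growth of the strain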
RECORDED CONDITIONS: S. cerevisiae deletion strains, growth OD, locus YBL061C, strain skt5
Hit rate of the full screen: of about 5,500 compounds, about 2,000 (36%) were called active. Roughly 18% stayed inconclusive and do not appear here. Rule as the data show it: active = normalized growth mostly below about 0.91 (no sharp cut-off); inconclusive = no clear call, values can overlap the other calls; inactive = mostly above about 0.92. Some of the results follow.
Reply using exactly one outcome from active, inactive

Here's what some known entries look like.
COMPOUND	LABEL VALUE
CC1(C)[C@@H]2CC[C@@]1(C)C(=O)C2	inactive
CC1=CC(=O)C2C(C)(C)CCC[C@]2(C)[C@@]1(O)CCc1ccoc1 (stereo partly specified)	inactive
CC(C)(C)NCC(O)COc1cccc2c1C[C@H](O)[C@H](O)C2 (stereo partly specified)	inactive
C/C=C/CC(C)C(O)C1C(=O)NC(CC)C(=O)N(C)CC(=O)N(C)C(CC(C)C)C(=O)NC(C(C)C)C(=O)N(C)C(CC(C)C)C(=O)NC(C)C(=O)NC(C)C(=O)N(C)C(CC(C)C)C(=O)N(C)C(CC(C)C)C(=O)N(C)C(C(C)C)C(=O)N1C (stereo unspecified)	inactive
O=S(=O)(O)O	inactive
O=C(CCCN1CCN(c2ccccn2)CC1)c1ccc(F)cc1	inactive

Please state the recorded outcome for this compound: `CN[C@H]1CC[C@@H](c2ccc(Cl)c(Cl)c2)c2ccccc21`
active

Hey, what did the test say about CC12CCC(=O)C=C1CCc1ccccc12 (stereo unspecified) ?
inactive

Hi, do you know how `COC(=O)NC(=S)Nc1ccccc1NC(=S)NC(=O)OC` came out in this test?
inactive

Identify the outcome logged in this assay for the compound shown: CC(=O)N1CCN(c2ccc(OCC3CO[C@](Cn4ccnc4)(c4ccc(Cl)cc4Cl)O3)cc2)CC1 (stereo partly specified)
active
